Target: T1, His9G-tagged cynomolgus CD27 recombinant protein (cynomolgus, limits assumed)
T1 construct: In-house, transient transfection of HEK293 cells; also called Cyno CD27/His
T1 chain: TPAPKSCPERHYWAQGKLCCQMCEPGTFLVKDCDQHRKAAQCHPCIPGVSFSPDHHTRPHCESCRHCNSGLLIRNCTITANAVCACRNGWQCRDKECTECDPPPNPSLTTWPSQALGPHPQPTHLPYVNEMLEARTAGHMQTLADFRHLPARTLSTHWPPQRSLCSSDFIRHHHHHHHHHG
Assay: SPR Biacore 4000, antibody captured on anti-human Fc, His9G-tagged CD27 injected, 1:1 fit;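 further: Double-referenced SPR (blank anti-Fc surface and buffer injection subtracted), KD derived from association and dissociation rate constants, with human and cynomolgus CD27 as analytes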
attribute.measured: Kd (nM)
State the answer as a number, implicitly in nM.

Value of measured Kd for the entry hCD27.131A VH9VL9 huIgG1 (antibody, V domains shown) VH: EIQLVQSGAEVKKPGASVKVSCKASGYTFTNYGMNWVRQAPGQGLKWMGWINTNTGEPTYAEEFKGRFTFTLDTSASTAYMELSSLRSEDTAVYYCAREGDAMDYWGQGTTVTVSS VL: DIQLTQSPSTLSASVGDRVTITCSASSSVSYMHWYQQKPGKAPKRWIYDTSKLASGVPARFSGSGSGTDYTLTISSLQPEDFATYYCQQWNSYPFTFGQGTKLEIK : 105

Just so you know, measured Kd for hCD27.131A VH8VL6 huIgG4 (antibody, V domains shown) VH: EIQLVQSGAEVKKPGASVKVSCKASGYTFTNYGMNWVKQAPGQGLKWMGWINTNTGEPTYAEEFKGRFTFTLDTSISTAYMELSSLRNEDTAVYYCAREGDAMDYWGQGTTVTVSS VL: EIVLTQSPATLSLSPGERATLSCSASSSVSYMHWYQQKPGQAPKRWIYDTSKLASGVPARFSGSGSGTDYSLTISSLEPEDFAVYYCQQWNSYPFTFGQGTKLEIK came out at 59.7

// field: Kd; key: hCD27.131A VH8VL7 huIgG1 (antibody, V domains shown) VH: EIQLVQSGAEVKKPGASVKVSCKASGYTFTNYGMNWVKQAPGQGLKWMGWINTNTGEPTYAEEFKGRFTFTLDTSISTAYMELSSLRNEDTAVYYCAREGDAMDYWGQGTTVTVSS VL: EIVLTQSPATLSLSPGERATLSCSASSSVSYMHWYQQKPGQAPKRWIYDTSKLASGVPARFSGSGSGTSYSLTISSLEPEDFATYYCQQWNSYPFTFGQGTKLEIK ; value = 44.1
